- system: EGFR L858R/T790M/C797S mutant (Homo sapiens (Human), UniProt P00533, C797S/L858R/T790M)
- Sequence (P00533 25-1210 T790M/C797S/L858R): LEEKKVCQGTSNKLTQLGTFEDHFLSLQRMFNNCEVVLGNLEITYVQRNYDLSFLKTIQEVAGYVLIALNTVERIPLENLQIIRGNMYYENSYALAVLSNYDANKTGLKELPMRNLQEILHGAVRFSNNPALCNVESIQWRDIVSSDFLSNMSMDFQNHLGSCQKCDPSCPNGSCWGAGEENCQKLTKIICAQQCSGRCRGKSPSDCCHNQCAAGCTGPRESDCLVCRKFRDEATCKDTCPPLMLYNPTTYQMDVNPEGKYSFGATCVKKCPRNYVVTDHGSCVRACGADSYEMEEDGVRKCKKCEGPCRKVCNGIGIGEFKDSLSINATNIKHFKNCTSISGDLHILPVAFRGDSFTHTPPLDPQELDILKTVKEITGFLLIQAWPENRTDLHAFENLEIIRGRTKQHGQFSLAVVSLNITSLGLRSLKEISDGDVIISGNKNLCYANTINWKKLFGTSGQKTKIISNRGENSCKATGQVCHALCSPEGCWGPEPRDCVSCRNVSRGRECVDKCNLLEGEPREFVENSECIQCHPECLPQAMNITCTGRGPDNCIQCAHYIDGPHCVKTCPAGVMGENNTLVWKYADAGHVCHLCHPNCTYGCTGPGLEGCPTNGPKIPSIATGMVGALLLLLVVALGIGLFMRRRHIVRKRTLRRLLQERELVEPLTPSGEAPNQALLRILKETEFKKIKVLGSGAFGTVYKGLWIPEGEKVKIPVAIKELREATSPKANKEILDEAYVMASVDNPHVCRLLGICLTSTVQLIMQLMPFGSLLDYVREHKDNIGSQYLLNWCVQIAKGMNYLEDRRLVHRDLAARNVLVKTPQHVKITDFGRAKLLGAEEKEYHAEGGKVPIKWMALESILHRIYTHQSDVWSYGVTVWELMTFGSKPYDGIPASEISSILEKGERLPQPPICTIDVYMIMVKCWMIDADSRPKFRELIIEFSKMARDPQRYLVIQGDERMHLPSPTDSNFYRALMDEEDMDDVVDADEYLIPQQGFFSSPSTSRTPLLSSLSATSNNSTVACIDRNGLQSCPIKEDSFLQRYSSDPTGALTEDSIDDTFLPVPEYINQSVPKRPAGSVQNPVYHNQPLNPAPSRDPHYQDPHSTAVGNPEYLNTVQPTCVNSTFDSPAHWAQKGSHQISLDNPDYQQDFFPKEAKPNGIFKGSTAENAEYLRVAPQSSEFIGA
- experiment_summary: HotSpot radiometric kinase assay, EGFR L858R/T790M/C797S mutant
- experimental_setup: 10 μM ATP
Quick rule for you: IC50 under 0.9 nM gets t, anything else gets f.

Please review the entries below; each comes with its answer.
[[record]]
smiles_structure = "CCc1nn(CCO)c2c1/C=C/c1n[nH]c3ccc(cc13)-c1cnn(C)c1O[C@@H](C)CN(C)C2"
class_label = "t"

[[record]]
smiles_structure = "CCc1nn(C)c2c1/C=C/c1n[nH]c3ccc(cc13)-c1cnn(C)c1O[C@@H](C)CCO2"
class_label = "f"

[[record]]
smiles_structure = "CC(C)Oc1nn(CCO)c2c1/C=C/c1n[nH]c3ccc(cc13)-c1cnn(C)c1O[C@H](C)[C@H]1CCCN1C2"
class_label = "f"


Strictly below 0.9 nM in IC50? Cc1c2c(nn1CCN1CCOCC1)CN(C)C[C@H](C)Oc1c(cnn1C)-c1ccc3[nH]nc(c3c1)/C=C/2
f

Strictly below 0.9 nM in IC50? CCc1nn(C)c2c1/C=C/c1n[nH]c3ccc(cc13)-c1cnn(C)c1OCC[C@@H](C)O2
f
